# target_under_test: GSPT1 protein (Homo sapiens, UniProt P15170+Q96SW2)
# Construct: endogenous in cells; host or cells: Jeko-1
# Sequence (P15170 whole entry): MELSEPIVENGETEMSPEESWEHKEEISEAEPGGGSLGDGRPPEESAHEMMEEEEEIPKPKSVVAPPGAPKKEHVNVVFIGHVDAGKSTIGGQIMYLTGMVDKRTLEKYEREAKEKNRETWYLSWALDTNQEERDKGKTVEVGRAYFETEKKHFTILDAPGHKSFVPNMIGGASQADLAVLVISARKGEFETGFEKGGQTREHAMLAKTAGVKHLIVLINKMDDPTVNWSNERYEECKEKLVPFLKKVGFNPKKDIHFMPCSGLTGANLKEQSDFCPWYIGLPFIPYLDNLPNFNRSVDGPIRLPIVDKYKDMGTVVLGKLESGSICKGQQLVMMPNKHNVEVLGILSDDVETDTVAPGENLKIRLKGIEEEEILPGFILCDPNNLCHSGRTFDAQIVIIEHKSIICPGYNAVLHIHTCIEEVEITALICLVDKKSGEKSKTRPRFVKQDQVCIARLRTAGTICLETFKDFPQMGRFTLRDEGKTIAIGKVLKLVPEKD
# Sequence (Q96SW2 whole entry): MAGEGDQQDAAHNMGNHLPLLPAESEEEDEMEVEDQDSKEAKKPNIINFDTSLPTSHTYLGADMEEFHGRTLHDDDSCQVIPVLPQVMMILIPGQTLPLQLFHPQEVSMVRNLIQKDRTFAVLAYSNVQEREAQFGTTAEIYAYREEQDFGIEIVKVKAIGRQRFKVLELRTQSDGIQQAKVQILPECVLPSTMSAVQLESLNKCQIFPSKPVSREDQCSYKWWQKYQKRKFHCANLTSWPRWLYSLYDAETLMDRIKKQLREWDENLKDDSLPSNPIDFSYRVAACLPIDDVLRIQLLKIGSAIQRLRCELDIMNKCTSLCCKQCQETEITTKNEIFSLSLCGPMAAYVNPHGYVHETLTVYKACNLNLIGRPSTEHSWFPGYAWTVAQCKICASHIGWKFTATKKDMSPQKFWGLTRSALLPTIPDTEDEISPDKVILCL
# Sequence (Q16531 whole entry partner): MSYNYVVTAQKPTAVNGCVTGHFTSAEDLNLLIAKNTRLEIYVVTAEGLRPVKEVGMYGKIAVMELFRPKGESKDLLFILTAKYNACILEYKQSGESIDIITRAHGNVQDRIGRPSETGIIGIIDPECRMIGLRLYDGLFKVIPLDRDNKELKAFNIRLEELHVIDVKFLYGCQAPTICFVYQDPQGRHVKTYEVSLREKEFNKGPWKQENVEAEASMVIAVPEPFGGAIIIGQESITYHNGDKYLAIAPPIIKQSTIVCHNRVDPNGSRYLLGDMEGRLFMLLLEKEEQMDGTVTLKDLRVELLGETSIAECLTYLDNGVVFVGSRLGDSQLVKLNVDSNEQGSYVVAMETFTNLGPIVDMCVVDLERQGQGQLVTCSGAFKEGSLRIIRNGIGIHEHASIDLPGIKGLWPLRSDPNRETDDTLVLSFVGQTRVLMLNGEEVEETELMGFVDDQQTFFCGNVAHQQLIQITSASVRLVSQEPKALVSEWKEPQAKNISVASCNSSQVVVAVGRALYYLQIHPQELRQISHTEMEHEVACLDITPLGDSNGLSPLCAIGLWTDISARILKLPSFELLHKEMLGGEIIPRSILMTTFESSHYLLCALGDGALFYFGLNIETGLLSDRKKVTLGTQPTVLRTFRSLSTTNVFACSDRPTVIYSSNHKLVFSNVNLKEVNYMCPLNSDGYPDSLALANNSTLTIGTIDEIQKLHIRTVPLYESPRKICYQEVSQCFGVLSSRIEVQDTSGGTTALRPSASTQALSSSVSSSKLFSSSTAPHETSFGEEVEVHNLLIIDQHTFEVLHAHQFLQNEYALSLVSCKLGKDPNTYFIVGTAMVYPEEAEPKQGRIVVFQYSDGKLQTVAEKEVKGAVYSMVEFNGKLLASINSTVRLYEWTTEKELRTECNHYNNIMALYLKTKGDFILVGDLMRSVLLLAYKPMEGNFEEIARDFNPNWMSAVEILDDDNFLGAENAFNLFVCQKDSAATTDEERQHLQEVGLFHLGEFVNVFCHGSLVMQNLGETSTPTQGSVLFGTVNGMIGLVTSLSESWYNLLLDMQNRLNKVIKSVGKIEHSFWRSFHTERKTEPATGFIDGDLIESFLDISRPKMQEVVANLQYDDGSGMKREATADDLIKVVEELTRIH
# experiment: Western blot detection of degradation activity of GSPT1 protein in Jeko-1 cells
# Type: cell-based
# condition_info: JeKo-1, 24 h, 10 μM, Jeko-1 cells, 24 hours; read-out: GSPT1 degradation rate (%)
# Method: Test Example 1: Western Blot Detection of Degradation Activity of GSPT1 Protein by the Compounds […] DMSO control group and test compound (concentration shown in the table below) were set up, after processing for 24 hours, the cells were collected, pre-cooled cell lysate was added and left on ice for 10 minutes. The total protein of the cells was extracted, and the protein concentration was measured and quantified using the BCA method. […]
Listed here: items and their measured inhibition at 10 µM.
measurement_kind: inhibition at 10 µM (%)

molecule="CC(C)(C)OC(=O)NC(C(=O)NCc1ccc2c(c1)CN(C1CCC(=O)NC1=O)C2=O)c1ccccc1Cl (centres unmarked)" endpoint_value=100
molecule="CC(C)(C)OC(=O)N[C@H](C(=O)NCc1ccc2c(c1)CN(C1CCC(=O)NC1=O)C2=O)c1ccc2ccccc2c1 (some centres unmarked)" endpoint_value=86
molecule="O=C1CCC(N2Cc3cc(CNC(=O)C(NC(=O)C4CCCC4)c4ccccc4)ccc3C2=O)C(=O)N1 (centres unmarked)" endpoint_value=93
molecule="CC[C@H](C)[C@@H](CC(=O)NCc1ccc2c(c1)CN(C1CCC(=O)NC1=O)C2=O)NC(=O)OC(C)(C)C (some centres unmarked)" endpoint_value=98
molecule="CC(C)(C)OC(=O)NC(CC(=O)NCc1ccc2c(c1)CN(C1CCC(=O)NC1=O)C2=O)c1ccccc1 (centres unmarked)" endpoint_value=94
molecule="CC(C)(C)OC(=O)N[C@H](C(=O)NCc1ccc2c(c1)CN(C1CCC(=O)NC1=O)C2=O)c1ccc(Br)cc1 (some centres unmarked)" endpoint_value=100
molecule="CC(C)(C)OC(=O)N[C@@H](CC1CCCCC1)C(=O)NCc1ccc2c(c1)CN(C1CCC(=O)NC1=O)C2=O (some centres unmarked)" endpoint_value=93.6
molecule="CC(C)(C)OC(=O)NC(C(=O)NCc1ccc2c(c1)CN(C1CCC(=O)NC1=O)C2=O)c1ccc(Cl)c(Cl)c1 (centres unmarked)" endpoint_value=95
molecule="Cc1ccc(S(=O)(=O)N[C@H](C(=O)NCc2ccc3c(c2)CN(C2CCC(=O)NC2=O)C3=O)c2ccccc2)cc1 (some centres unmarked)" endpoint_value=53
molecule="COC(C(=O)N[C@H](C(=O)NCc1ccc2c(c1)CN(C1CCC(=O)NC1=O)C2=O)c1ccccc1)c1ccccc1 (some centres unmarked)" endpoint_value=81
molecule="CN(C(=O)OC(C)(C)C)[C@H](C(=O)NCc1ccc2c(c1)CN(C1CCC(=O)NC1=O)C2=O)c1ccccc1 (some centres unmarked)" endpoint_value=93
molecule="CC(C)(C)OC(=O)N[C@H](C(=O)NCc1ccc2c(c1)CN(C1CCC(=O)NC1=O)C2=O)c1ccc(F)c(Cl)c1 (some centres unmarked)" endpoint_value=82
molecule="O=C1CCC(N2Cc3cc(CNC(=O)[C@@H](NC(=O)OCc4ccccc4)c4ccccc4)ccc3C2=O)C(=O)N1 (some centres unmarked)" endpoint_value=97
molecule="CN(C(=O)OC(C)(C)C)[C@@H](C(=O)NCc1ccc2c(c1)CN(C1CCC(=O)NC1=O)C2=O)c1ccccc1 (some centres unmarked)" endpoint_value=99

The reported numbers originate from patent US20250214960A1.
